Quick reference: IC50 of the listed items.
TARGET_SYSTEM: Avi-KRAS G12V (2-169) GTP/RAF1 RBD-3xFLAG (51-131) (Homo sapiens, UniProt P01116, G12V)
Construct: Avi-KRAS G12V (2-169)
Sequence (P01116 2-169 isoform P01116-2 G12V): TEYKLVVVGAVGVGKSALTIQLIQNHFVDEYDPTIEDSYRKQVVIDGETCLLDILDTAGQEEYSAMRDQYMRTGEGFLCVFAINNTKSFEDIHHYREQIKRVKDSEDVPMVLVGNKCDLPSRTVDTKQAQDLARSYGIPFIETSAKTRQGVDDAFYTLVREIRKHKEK
ASSAY_REMARKS: Raf1-KRAS G12V-GTP disruption HTRF assay (Biological Example 3)
Type: binding
CONDITION_DESCRIPTION: KRAS G12V, GTP-loaded
Protocol: Biological Example 3: Disrupting RAS-Effector Binding HTRF Assay A protein:protein interaction (PPI) Homogeneous Time Resolved Fluorescence (HTRF) assay was used to determine the effectiveness of compounds in disrupting KRAS protein and effector (RAF1) binding. […] Plates were analyzed on an Envision plate reader using the following setting: Excitation 320 nm, Bandwidth 75 nm; Emission 615 nm, Bandwidth 85 nm; Gain 100%; Flashes 100; Lag 60 μs. […] Data was plotted and analyzed using Prism 8. […]

COMPOUND	IC50
CCN(c1nc(OC[C@@]23CCCN2C[C@H](F)C3)nc2c(F)c(-c3ccc(F)c4sc(N)c(C#N)c34)c(C(F)(F)F)cc12)[C@H]1C[C@H]2CCCC(=O)N2C1 (atropisomer, axis not shown; (aR))	≤ 100 nM

For the compound CCN(c1nc(OC[C@@]23CCCN2C[C@H](F)C3)nc2c(F)c(-c3ccc(F)c4sc(N)c(C#N)c34)c(C(F)(F)F)cc12)[C@@H]1CCN(C(=O)[C@@H]2CCO2)[C@@H]1C (atropisomer, axis not shown) , what IC50 is on record?
100 to 1000 nM

Reported IC50, compound CCN(c1nc(OCC23CCCN2CC(F)C3)nc2c(F)c(-c3ccc(F)c4sc(N)c(C#N)c34)c(C(F)(F)F)cc12)C1CCN(C(=O)c2nc(C)ns2)C1 (centres unmarked) : ____
1000 to 10000 nM

I'd like to know its IC50. The compound in question is CN(CC1COC1)c1nc(OC[C@@]23CCCN2C[C@H](F)C3)nc2c(F)c(-c3ccc(F)c4sc(N)c(C#N)c34)c(C(F)(F)F)cc12 (atropisomer, axis not shown)
> 10000 nM

Fill blank: measured IC50 of the compound CCN(c1nc(OC[C@@]23CCCN2C[C@H](F)C3)nc2c(F)c(-c3ccc(F)c4sc(N)c(C#N)c34)c(C(F)(F)F)cc12)[C@H]1CCN(C(=O)c2ncc(C#N)s2)C1 (atropisomer, axis not shown) is ____.
100 to 1000 nM

---

TARGET_SYSTEM: Avi-KRAS WT (1-169) GppNHp/RAF1 RBD-3xFLAG (52-151) (Homo sapiens)
Construct: Avi-KRAS WT (1-169)
Sequence (P01116 1-169 isoform P01116-2): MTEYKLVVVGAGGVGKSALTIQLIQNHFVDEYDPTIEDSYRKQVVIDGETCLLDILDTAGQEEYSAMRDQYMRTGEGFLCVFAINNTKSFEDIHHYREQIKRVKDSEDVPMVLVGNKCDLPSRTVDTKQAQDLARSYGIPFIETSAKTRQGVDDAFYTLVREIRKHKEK
ASSAY_REMARKS: Raf1-KRAS WT-GppNHP disruption HTRF assay (Biological Example 1)
Type: binding
CONDITION_DESCRIPTION: KRAS WT-GppNHp/RAF1 RBD HTRF
ATTRIBUTE_MEASURED: IC50

Kindly state the measured IC50 obtained for CN(c1nc(OC[C@@]23CCCN2C[C@H](F)C3)nc2c(F)c(-c3ccc(F)c4sc(N)c(C#N)c34)c(C(F)(F)F)cc12)[C@@H]1CC(=O)N2CCC[C@H]12 with Avi-KRAS WT (1-169) GppNHp/RAF1 RBD-3xFLAG (52-151) (Homo sapiens).
100 to 1000 nM

Param readout= IC50; system= Avi-KRAS WT (1-169) GppNHp/RAF1 RBD-3xFLAG (52-151) (Homo sapiens); entry= CCN(c1nc(OC[C@@]23CCCN2C[C@H](F)C3)nc2c(F)c(-c3ccc(F)c4sc(N)c(C#N)c34)c(C(F)(F)F)cc12)[C@H]1C[C@@H](C)N(C(=O)OC)C1 (atropisomer, axis not shown) ; returns value.
100 to 1000 nM

Find IC50 (Avi-KRAS WT (1-169) GppNHp/RAF1 RBD-3xFLAG (52-151) (Homo sapiens)) for the entry N#Cc1c(N)sc2c(F)ccc(-c3c(C(F)(F)F)cc4c(N5C[C@H]6C[C@@H](O)[C@@H]5C6)nc(OC[C@@]56CCCN5C[C@H](F)C6)nc4c3F)c12
100 to 1000 nM

// map Cc1c(C(=O)N(C)C)nn2c1CN(c1nc(OC[C@@]34CCCN3C[C@H](F)C4)nc3c(F)c(-c4ccc(F)c5sc(N)c(C#N)c45)c(C(F)(F)F)cc13)CC2 to recorded IC50 (system: Avi-KRAS WT (1-169) GppNHp/RAF1 RBD-3xFLAG (52-151) (Homo sapiens))
100 to 1000 nM
